Below is a list of entries, each paired with its recorded Stability of Plant-Derived Cannabinoid Compounds in AB White, 8° C. value.
Experiment: Stability of cannabinoid compounds and Vitamin E components in Beverage 1 (AB White) by LCMSMS
Assay type: physicochemical
Conditions: AB White stored at 8° C.; 10 days
Give your result in µg/mL as a bare value.

Worked cases, answers included:
{"MOLECULE": "CCCCCc1cc(O)c2c(c1)OC1(C)CCC3C1C2C3(C)C (stereo not shown) [CBL, cannabicyclol]", "RESULT_VALUE": 0.544}
{"MOLECULE": "C=C(C)[C@@H]1CCC(C)=C[C@H]1c1c(O)cc(CCCCC)cc1O [CBD, cannabidiol, reference compound]", "RESULT_VALUE": 27.87}
{"MOLECULE": "CCCCCc1cc(O)c2c(c1)OC(C)(C)[C@@H]1CCC(C)=C[C@@H]21 [D9 THC, delta-9-tetrahydrocannabinol, reference compound]", "RESULT_VALUE": 12.07}
{"MOLECULE": "CCCCCc1cc(O)c2c(c1)OC(C)(CCC=C(C)C)C=C2 (stereo not shown) [CBC, cannabichromene]", "RESULT_VALUE": 0.314}
{"MOLECULE": "CCCCCc1cc(O)c2c(c1)OC(C)(C)c1ccc(C)cc1-2 [CBN, cannabinol]", "RESULT_VALUE": 2.79}

INPUT: Record request: Stability of Plant-Derived Cannabinoid Compounds in AB White, 8° C. value, item C=C(C)[C@@H]1CCC(C)=C[C@H]1c1c(O)cc(CCC)cc1O [CBDV, cannabidivarin]
OUTPUT: 0.148

----------
Test: Stability of cannabinoid compounds and Vitamin E components in Beverage 1 (AB White) by LCMSMS
Assay type: physicochemical
Conditions: AB White stored at 8° C.; 23 days
VALUE_TYPE: Stability of Plant-Derived Cannabinoid Compounds in AB White, 8° C. (µg/mL)
Give your result in µg/mL as a bare value.

Worked cases, answers included:
{"MOLECULE": "C=C(C)[C@@H]1CCC(C)=C[C@H]1c1c(O)cc(CCCCC)cc1O [CBD, cannabidiol, reference compound]", "RESULT_VALUE": 27.67}
{"MOLECULE": "CCCCCc1cc(O)c2c(c1)OC1(C)CCC3C1C2C3(C)C (stereo not shown) [CBL, cannabicyclol]", "RESULT_VALUE": 0.545}
{"MOLECULE": "CCCCCc1cc(O)c2c(c1)OC(C)(C)[C@@H]1CCC(C)=C[C@@H]21 [D9 THC, delta-9-tetrahydrocannabinol, reference compound]", "RESULT_VALUE": 12.03}

INPUT: Record request: Stability of Plant-Derived Cannabinoid Compounds in AB White, 8° C. value, item CCCc1cc(O)c2c(c1)OC(C)(C)[C@@H]1CCC(C)=C[C@@H]21 [THCV, delta-9-tetrahydrocannabivarin]
OUTPUT: 3.55

----------
Below is a list of entries, each paired with its recorded Stability of Plant-Derived Cannabinoid Compounds in AB White, 21-25° C. value.
Experiment: Stability of cannabinoid compounds and Vitamin E components in Beverage 1 (AB White) by LCMSMS
Type: physicochemical
Settings: AB White stored at 21-25° C.; 2 days
Give your result in µg/mL as a bare value.

Worked cases, answers included:
{"COMPOUND": "CCCc1cc(O)c2c(c1)OC(C)(C)[C@@H]1CCC(C)=C[C@@H]21 [THCV, delta-9-tetrahydrocannabivarin]", "RESULT_VALUE": 3.58}
{"COMPOUND": "C=C(C)[C@@H]1CCC(C)=C[C@H]1c1c(O)cc(CCC)cc1O [CBDV, cannabidivarin]", "RESULT_VALUE": 0.148}

INPUT: Record request: Stability of Plant-Derived Cannabinoid Compounds in AB White, 21-25° C. value, item CCCCCc1cc(O)c2c(c1)OC(C)(C)c1ccc(C)cc1-2 [CBN, cannabinol]
OUTPUT: 2.81

INPUT: Record request: Stability of Plant-Derived Cannabinoid Compounds in AB White, 21-25° C. value, item CCCCCc1cc(O)c2c(c1)OC1(C)CCC3C1C2C3(C)C (stereo not drawn) [CBL, cannabicyclol]
OUTPUT: 0.540

INPUT: Record request: Stability of Plant-Derived Cannabinoid Compounds in AB White, 21-25° C. value, item CCCCCc1cc(O)c(C/C=C(\C)CCC=C(C)C)c(O)c1 [CBG, cannabigerol]
OUTPUT: 4.72

INPUT: Record request: Stability of Plant-Derived Cannabinoid Compounds in AB White, 21-25° C. value, item C=C(C)[C@@H]1CCC(C)=C[C@H]1c1c(O)cc(CCCCC)c(C(=O)O)c1O [CBDA, cannabidiolic acid]
OUTPUT: 1.70

INPUT: Record request: Stability of Plant-Derived Cannabinoid Compounds in AB White, 21-25° C. value, item CCCCCc1cc2c(c(O)c1C(=O)O)[C@@H]1C=C(C)CC[C@H]1C(C)(C)O2 [D9 THCA, delta-9-tetrahydrocannabinolic acid]
OUTPUT: 0.938

INPUT: Record request: Stability of Plant-Derived Cannabinoid Compounds in AB White, 21-25° C. value, item CCCCCc1cc(O)c2c(c1)OC(C)(C)[C@@H]1CCC(C)=C[C@@H]21 [D9 THC, delta-9-tetrahydrocannabinol, reference compound]
OUTPUT: 12.0

INPUT: Record request: Stability of Plant-Derived Cannabinoid Compounds in AB White, 21-25° C. value, item CCCCCc1cc(O)c2c(c1)OC(C)(CCC=C(C)C)C=C2 (stereo not drawn) [CBC, cannabichromene]
OUTPUT: 0.318

Values compiled from patent US20260130395A1.
